System: MALME-3M melanoma
Assay: NCI-60 one-dose screen, 48 h (100 = growth as untreated, 0 = no growth, -100 = all killed)
Conditions: 10 µM unless noted
About 83,000 compounds went through this panel and 20% of them were active in at least one assay; those are over-represented in the sample as a whole.
measured attribute: growth (%)
One number for each entry, in %.

Some compounds with known growth results, for comparison:
C[C@H](O)CCC(=O)c1ccoc1    106
C[C@]12CCc3sc(Nc4ccc(F)cc4F)nc3C1=CC[C@@H]1[C@@H]2CC[C@]2(C)C(=O)CC[C@@H]12    69.5
CC1OC(=O)C(C(C)C)NC(=O)C(C(C)C)OC(=O)C(C(C)C)NC(=O)C(C)OC(=O)C(C(C)C)NC(=O)C(C(C)C)OC(=O)C(C(C)C)NC(=O)C(C)OC(=O)C(C(C)C)NC(=O)C(C(C)C)OC(=O)C(C(C)C)NC1=O (stereo not drawn)    9.37
[N-]=[N+]=CC(=O)CCC(=O)C=[N+]=[N-]    96.3

Please state growth for every compound in the list that follows.
1. Cc1ccc(NC2=N[C@]34CC(=O)CC[C@]3(C)[C@H]3CC[C@]5(C)C(=O)CC[C@H]5[C@@H]3C[C@@H]4S2)c(C)c1
2. NC(N)=NC(N)=Nc1ccc(Cl)cc1
3. CC[C@H](C)[C@H](NC(=O)c1ncccn1)C(=O)N(C)[C@H](C[C@@H](OC(C)=O)c1nc(C(=O)N[C@@H](Cc2ccccc2)C[C@H](C)C(=O)OC)cs1)C(C)C
4. C[N+]12CCC34C5=CC(=O)C(=O)C=C5[N+]5(C)C(=O)CC6OCC=C(C1)C(CC32)C6C45 (stereo not drawn)

Ans.
1: 27.3; 2: 116; 3: 60.7; 4: 99.4

Take each entry in turn and give its growth.
1. CNC(=O)O/N=C(\SC)C(=O)N(C)C
2. Cc1ccccc1-n1c(/C=C\c2ccccn2)nc2ccccc2c1=O
3. NC1CN2CCC1CC2 (stereo not drawn)
4. Oc1cc(Cl)ccc1Oc1ccc(Cl)cc1Cl
5. CCCC[C@H]1C(=O)O[C@H](C)[C@H](NC(=O)c2cccc(NC=O)c2O)C(=O)O[C@@H](C)[C@@H]1OC(=O)CC(C)C
6. COC(=O)[C@@H](C)C[C@H](Cc1ccccc1)NC(=O)c1cccc([C@@H](C[C@H](C(C)C)N(C)C(=O)[C@@H](NC(=O)[C@H]2CCCCN2C)C2CC2)OC(C)=O)n1

Ans.
1: 117; 2: 59.5; 3: 105; 4: 5.91; 5: 44; 6: 67.1

Please state growth for every compound in the list that follows.
1. C/C(=N/OC(=O)N(C)C)c1ccc(Cl)c(Cl)c1
2. CC1(C)N=C(N)N=C(N)N1c1ccc(CCC(=O)Nc2ccc(S(=O)(=O)F)cc2)cc1
3. N#CCc1ccc(CC#N)cc1
4. COc1cc2c(cc1OC)-c1c3c(cc4c1[C@@H](C2)N(C)CC4)OCO3

Ans.
[115, 47, 118, 54.3]
